FYI, the data here is from patent US20190054150A1.

molecular target: MCR1 (human, UniProt Q01726 1-317); assay: cell-based or functional assay
Sequence (Q01726 whole entry): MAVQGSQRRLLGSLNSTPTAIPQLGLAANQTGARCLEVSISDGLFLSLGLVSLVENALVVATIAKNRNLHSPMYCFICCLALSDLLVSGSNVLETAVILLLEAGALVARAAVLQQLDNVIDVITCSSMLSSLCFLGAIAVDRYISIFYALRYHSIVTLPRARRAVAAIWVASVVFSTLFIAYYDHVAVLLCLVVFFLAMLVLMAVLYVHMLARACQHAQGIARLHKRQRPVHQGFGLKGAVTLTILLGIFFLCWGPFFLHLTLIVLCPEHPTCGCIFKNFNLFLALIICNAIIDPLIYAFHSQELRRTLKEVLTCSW
Square brackets hold non-standard residues; d marks the D form. Ends that are not written are not given here. Nle = CCCC[C@H](N)C(=O)O
value.kind: MCR1 EC50 (nM); cAMP production, LANCE cAMP assay, CHO-MCR1 cells, cell pool C
Hi! Could you send only the number? It should be in nM, unit omitted.

get_value(item= SYSMEHFRWGKPVGAARRPVKVYPGGGGSGGSYS[Nle]EH[dF]RWGKPV (ends and bridges not checked) [ACTH1-24-point-1-2-7aa-NDP-α-MSH] , readout=MCR1 EC50 (nM); cAMP production, LANCE cAMP assay, CHO-MCR1 cells, cell pool C) returns 0.3

get_value(item= SYSMEHFRWGKPVGKKRRPVKVYPSYS[Nle]EH[dF]RWGKPV (ends and bridges not checked) [ACTH1-24-NDP-α-MSH] , readout=MCR1 EC50 (nM); cAMP production, LANCE cAMP assay, CHO-MCR1 cells, cell pool C) returns 0.28

get_value(item= SYSMEHFRWGKPVGKKRRPVKVYPGGGGSGGGGSSYS[Nle]EH[dF]RWGKPV (ends and bridges not checked) [ACTH1-24-linker-linker-NDP-α-MSH] , readout=MCR1 EC50 (nM); cAMP production, LANCE cAMP assay, CHO-MCR1 cells, cell pool C) returns 0.39
